Where do the numbers come from? From patent US8666675B2.

- measurementDescription: Solvent characteristics (hydrophobic / polar / hydrophilic / complex)
- Assay type: physicochemical
parameterMeasured: Solvent characteristics

Examples with answers:
> print(dat)
                                    compound         testresult
 1  CN1CCCC1=O [N-METHYL-2-PYRROLIDONE, N-Methyl-2-pyrrolidone]        Hydrophobic
 2                          O [WATER, Water]        Hydrophilic
 3            CCCCCCC [N-HEPTANE, n-Heptane]        Hydrophobic
 4  CCC(C)O (stereo not drawn) [2-BUTANOL, 2-Butanol]       Hydrophobic/
 5      O=S1(=O)CCCC1 [SULFOLANE, Sulfolane]              Polar
 6  ClCCl [DICHLOROMETHANE, Dichloromethane]              Polar
 7  CCC(C)=O [METHYL-ETHYL-KETONE, Methyl-ethyl-ketone]  Hydrophobic/Polar
 8           O=CO [FORMIC-ACID, Formic-acid]            Complex
 9  CCCCOC(C)=O [N-BUTYL-ACETATE, n-Butyl-acetate]  Hydrophobic/Polar
10  CCCOC(C)=O [N-PROPYL-ACETATE, n-propyl-acetate]  Hydrophobic/Polar

stdin: Fill in the blank: the reported Solvent characteristics of Cc1ccccc1 [TOLUENE, Toluene] is ____.
stdout: Hydrophobic

stdin: Fill in the blank: the reported Solvent characteristics of CCCCO [1-BUTANOL, 1-Butanol] is ____.
stdout: Hydrophobic/

stdin: Fill in the blank: the reported Solvent characteristics of CC(C)CCO [3-METHYL-1-BUTANOL, 3-Methyl-1-butanol] is ____.
stdout: Hydrophobic/

stdin: Fill in the blank: the reported Solvent characteristics of CCOC=O [ETHYL-FORMATE, Ethyl-formate] is ____.
stdout: Polar

* * *

- measurementDescription: Solvent characteristics (hydrophobic / polar / hydrophilic / complex)
- Format: physicochemical
parameterMeasured: Solvent characteristics

Examples with answers:
> print(dat)
        compound         testresult
1      CCN(CC)CC  Hydrophobic/Polar
2  C[N+](=O)[O-]              Polar
3      CCCCCCCCO       Hydrophobic/
4       C1COCCO1              Polar
5             CO       Hydrophobic/

stdin: Fill in the blank: the reported Solvent characteristics of `c1ccncc1` is ____.
stdout: Polar

stdin: Fill in the blank: the reported Solvent characteristics of `COC(C)(C)C` is ____.
stdout: Hydrophobic

stdin: Fill in the blank: the reported Solvent characteristics of CN(C)C=O [N,N-DIMETHYLFORMAMIDE, N,N-Dimethylformamide] is ____.
stdout: Polar

stdin: Fill in the blank: the reported Solvent characteristics of `CC(Cl)(Cl)Cl` is ____.
stdout: Hydrophobic

stdin: Fill in the blank: the reported Solvent characteristics of `CCCCCC` is ____.
stdout: Hydrophobic

stdin: Fill in the blank: the reported Solvent characteristics of `CCO` is ____.
stdout: Hydrophobic/

stdin: Fill in the blank: the reported Solvent characteristics of `C1CCCCC1` is ____.
stdout: Hydrophobic

stdin: Fill in the blank: the reported Solvent characteristics of `ClC=CCl` is ____.
stdout: Hydrophobic

stdin: Fill in the blank: the reported Solvent characteristics of `CCCO` is ____.
stdout: Hydrophobic/

stdin: Fill in the blank: the reported Solvent characteristics of `CCOCC` is ____.
stdout: Hydrophobic

stdin: Fill in the blank: the reported Solvent characteristics of `COCCO` is ____.
stdout: Hydrophobic/

stdin: Fill in the blank: the reported Solvent characteristics of CC(=O)OCC(C)C [ISOBUTYL-ACETATE, Isobutyl-acetate] is ____.
stdout: Polar

stdin: Fill in the blank: the reported Solvent characteristics of `CC(=O)CC(C)C` is ____.
stdout: Hydrophobic/Polar

stdin: Fill in the blank: the reported Solvent characteristics of C[S+](C)[O-] [Dimethyl-sulfoxide] is ____.
stdout: Polar

stdin: Fill in the blank: the reported Solvent characteristics of `CC1CCCCC1` is ____.
stdout: Polar
